Target: G1 APOL1 (Homo sapiens, UniProt O14791, I384M/S342G)
Construct: expressed in transfected cells
Sequence (O14791 28-398 S342G/I384M): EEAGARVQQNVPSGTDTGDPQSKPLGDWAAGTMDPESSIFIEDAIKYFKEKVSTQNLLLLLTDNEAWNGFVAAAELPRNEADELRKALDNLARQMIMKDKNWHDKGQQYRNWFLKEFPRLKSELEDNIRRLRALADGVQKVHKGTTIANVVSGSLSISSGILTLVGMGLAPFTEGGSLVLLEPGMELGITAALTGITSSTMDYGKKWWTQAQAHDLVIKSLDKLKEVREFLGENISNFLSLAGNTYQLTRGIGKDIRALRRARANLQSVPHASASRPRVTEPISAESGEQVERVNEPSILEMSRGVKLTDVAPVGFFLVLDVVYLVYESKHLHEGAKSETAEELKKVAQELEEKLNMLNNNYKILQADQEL
Assay: Acute APOL1 Thallium Assay with inducible stable clones of HEK 293 cells
Assay type: cell-based
Settings: HEK 293 T-Rex inducible stable clone expressing G1 APOL1; read-out: Thallium Assay (IC50)
outcome_measure: IC50

Kindly note: G1 APOL1 (Homo sapiens, UniProt O14791, I384M/S342G), CC(C)(C)OC(=O)NCCNCC1CC(c2c(-c3ccc(F)cc3)[nH]c3c(F)cc(F)cc23)C1 (stereo not shown) , IC50 value reported: > 1000 nM

* * *

Reported pIC50 values follow for various compounds
Biological target: G1 APOL1 (Homo sapiens, UniProt O14791, I384M/S342G)
Construct: expressed in transfected cells
Assay: Acute APOL1 Thallium Assay with inducible stable clones of HEK 293 cells
Type: cell-based
Conditions: HEK 293 T-Rex inducible stable clone expressing G1 APOL1; read-out: Thallium Assay (IC50)
pIC50: −log10 of the molar value.

// worked examples, pIC50 included
compound | outcome_measure | experimental_value
O=C1CC[C@@H](C(=O)NC[C@H]2C[C@H](c3c(-c4ccc(F)cc4)[nH]c4c(F)cc(F)cc43)C2)N1 [Compound 235] | pIC50 | < 6.00
CS(=O)(=O)CCCC(=O)N[C@H]1C[C@@H](c2c(-c3ccc(F)cc3)[nH]c3c(F)cc(F)cc32)C1 [Compound 32] | pIC50 | < 6.00
CC(C)(C)OC(=O)N1C[C@@H](O)C[C@H]1C(=O)NC[C@H]1C[C@H](c2c(-c3ccc(F)cc3)[nH]c3c(F)cc(F)cc32)C1 [Compound 252] | pIC50 | < 6.00

Proceeding to the next compound to report its pIC50.
O=C(CO)N[C@H]1C[C@@H](c2c(-c3ccc(F)cc3)[nH]c3c(F)cc(F)cc32)C1 [Compound 29] has a reported pIC50 of 6.00 to 6.60
